Experimental target: binding partner of C5A (XPA23)
Protocol text: Biacore
Attribute measured: fold difference in affinity vs original (fold)
Give bare numbers, in fold.

Example cases with answers are listed next.
>>> value_measured("C5A (XPA23) VH S52P (antibody, V domains shown) VH: EVQLLESGGGLVQPGGSLRLSCAASGFTFSKYFMFWVRQAPGKGLEWVSVIPPSGGMTRYADSVKGRFTISRDNSKNTLYLQMNSLRAEDTAVYYCARVGYGGNSDYWGQGTLVTVSS VL: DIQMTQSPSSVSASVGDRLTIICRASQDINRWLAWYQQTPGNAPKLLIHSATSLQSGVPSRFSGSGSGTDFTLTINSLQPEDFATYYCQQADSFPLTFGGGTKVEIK")
0.05
>>> value_measured("C5A (XPA23) VH Y101P (antibody, V domains shown) VH: EVQLLESGGGLVQPGGSLRLSCAASGFTFSKYFMFWVRQAPGKGLEWVSVISPSGGMTRYADSVKGRFTISRDNSKNTLYLQMNSLRAEDTAVYYCARVGPGGNSDYWGQGTLVTVSS VL: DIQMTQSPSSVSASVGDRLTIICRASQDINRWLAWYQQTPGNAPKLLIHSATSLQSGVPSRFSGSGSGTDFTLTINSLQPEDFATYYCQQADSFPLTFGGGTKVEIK")
0.04

Entry under test: C5A (XPA23) VH S54P (antibody, V domains shown) VH: EVQLLESGGGLVQPGGSLRLSCAASGFTFSKYFMFWVRQAPGKGLEWVSVISPPGGMTRYADSVKGRFTISRDNSKNTLYLQMNSLRAEDTAVYYCARVGYGGNSDYWGQGTLVTVSS VL: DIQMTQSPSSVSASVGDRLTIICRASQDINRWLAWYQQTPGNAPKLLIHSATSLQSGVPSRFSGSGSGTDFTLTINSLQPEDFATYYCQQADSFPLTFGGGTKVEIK . Its fold difference in affinity vs original was 0.06
